B1: wild-type recombinant mouse MASP-3 fused with PA-tag (WT rmMASP-3-PA) [mouse] / mouse collectin kidney 1 (CL-K1) [mouse (endogenous in serum of C57BL/6J mice)] (parent)
chain 1: HTVELNEMFGQIQSPGYPDSYPSDSEVTWNITVPEGFRIKLYFMHFNLESSYLCEYDYVKVETEDQVLATFCGRETTDTEQTPGQEVVLSPGTFMSVTFRSDFSNEERFTGFDAHYMAVDVDECKEREDEELSCDHYCHNYIGGYYCSCRFGYILHTDNRTCRVECSGNLFTQRTGTITSPDYPNPYPKSSECSYTIDLEEGFMVSLQFEDIFDIEDHPEVPCPYDYIKIKAGSKVWGPFCGEKSPEPISTQTHSVQILFRSDNSGENRGWRLSYRAAGNECPKLQPPVYGKIEPSQAVYSFKDQVLVSCDTGYKVLKDNEVMDTFQIECLKDGAWSNKIPTCKIVDCGAPAGLKHGLVTFSTRNNLTTYKSEIRYSCQQPYYKMLHNTTGVYTCSAHGTWTNEVLKRSLPTCLPVCGQPSRALPNLVKRIIGGRNAELGLFPWQALIVVEDTSRVPNDKWFGSGALLSESWILTAAHVLRSQRRDNTVIPVSKEHVTVYLGLHDVRDKSGAVNSSAARVILHPDFNIQNYNHDIALVQLQKPVPLGAHVMPICLPRPEPEGPAPHMLGLVAGWGISNPNVTVDEIILSGTRTLSDVLQYVKLPVVSHAECKASYESRSGNYSVTENMFCAGYYEGGKDTCLGDSGGAFVIFDEMSQHWVAQGLVSWGGPEECGSKQVYGVYTKVSNYVDWLWEEMNSPRAVRDLQVER
chain 2: QQTTEDACSVQILVPGLKGDAGEKGDKGAPGRPGRVGPTGEKGDMGDKGQKGTVGRHGKIGPIGAKGEKGDSGDIGPPGPSGEPGIPCECSQLRKAIGEMDNQVTQLTTELKFIKNAVAGLRETESKIYLLVKEEKRYADAQLSCQARGGTLSMPKDEAANGLMASYLAQAGLARVFIGINDLEKEGAFVYSDRSPMQTFNKWRSGEPNNAYDEEDCVEMVASGGWNDVACHITMYFMCEFDKENL

Variants of: B1
Experiment: immunoprecipitation with anti-PA tag antibody beads from mouse serum, Western blot band intensity
Conditions: with mouse collectin kidney 1 (CL-K1) [mouse (endogenous in serum of C57BL/6J mice)]; TBS containing 7 mM MgCl2 and 5 mM CaCl2 (TBS/Mg/Ca); parent: 1; read off a plot
reported.metric: ratio to parent
Note: the reply should be a number with no unit written.

Q. // query ratio to parent value for entry chain 1 E49A
A. 0.02

Q. What value of measured ratio to parent is listed for chain 1 H218A ?
A. 0.04

Q. Would you kindly share the measured ratio to parent for chain 1 Y225A ?
A. 0.07

Q. I'd like to know its ratio to parent. The variant in question is chain 1 D102A
A. 0.03

Data origin: paper PMC9425028
